Entries and their IC50 (µg/mL), pseudovirus neutralization
- TARGET_ENTITY: HIV-1 92TH021 Env (pseudovirus) (HIV-1 isolate 92TH021)
- METHOD_DESCRIPTION: cell-based or functional assay

The cases that follow already have their IC50 (µg/mL), pseudovirus neutralization on record.
Query block: Look up IC50 (µg/mL), pseudovirus neutralization: 1495_C14 (PGC14) (antibody, human IgG1, lambda, V domains shown) VH: DGHLVQSGVEVKKTGATVKISCKVSGYSFIDYYLHWVQRAPGKGLEWVGLIDPENGEARYAEKFQGRVTIIADTSIDTGYMEMRSLKSEDTAVYFCAAGAVGADSGSWFDPWGQGTLVTVSS VL: SYELTQPPSVSVSPGQTASITCSGSKLGDKYVSWYQLRPGQSPILVMYENDRRPSGIPERFSGSNSGDTATLTISGTQALDEADFYCQAWETTTTTFVFFGGGTQLTVLG
Result block: > 50 µg/mL

Query block: Can you handle 1443_C16 (PG16) (TCN-116) (antibody, V domains shown) VH: QEQLVESGGGVVQPGGSLRLSCLASGFTFHKYGMHWVRQAPGKGLEWVALISDDGMRKYHSDSMWGRVTISRDNSKNTLYLQFSSLKVEDTAMFFCAREAGGPIWHDDVKYYDFNDGYYNYHYMDVWGKGTTVTVSS VL: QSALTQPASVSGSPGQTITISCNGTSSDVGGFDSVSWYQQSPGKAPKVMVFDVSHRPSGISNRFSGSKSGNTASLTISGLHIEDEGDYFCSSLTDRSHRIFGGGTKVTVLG next?
Result block: 0.13 µg/mL

Query block: Can you handle 1460_G14 (PGG14) (antibody, human IgG1, kappa, V domains shown) VH: QVLLVQSGTEVKKPGSSVKVSCQASGGAFSSYAFSWVRQAPGQGLEWMGMITPVFGETKYAPRFQGRLTLTAEESLSTTYMELRSLTSDDTAFYYCTRDRRVVPMATDNWLDPWGQGTLVTVSS VL: DIQLTQSPSSLSASVGDRVTVTCRASQTIHTYLNWYQQIPGKAPKLLIYGASTLQSGVPSRFSGSGSGTDFTLTINSLQPEDFATYYCQQSYSTPRTFGQGTRLDIKR next?
Result block: > 50 µg/mL

Attention now turns to another entry.
Query block: Look up IC50 (µg/mL), pseudovirus neutralization: 1456_P20 (PG20) (antibody, human IgG1, kappa, V domains shown) VH: QVRLVQSGPEVKKPGSSVTVSCQASGGTFSSYAFTWVRQAPGQGLEWLGMVTPIFGEAKYSQRFEGRVTITADESTSTTSIELRGLTSEDTAIYYCARDRRAVPIATDNWLDPWGQGTLVTVSS VL: DIQLTQSPSSLSASVGDRVSITCRASQTINNYLNWYQQTPGKAPKLLIYGASNLQNGVPSRFSGSGSGTDFTLTISSLQPEDFATYYCQQSFSTPRTFGQGTRLDIKR
Result block: > 50 µg/mL
